# Tested on: C. parvum strain UGA1
# assayExplanation: C. parvum growth inhibition assay (Nluc luminescence in HCT-8 cells)
# Type: cell-based, Cryptosporidium parvum
# runParameters: Cryptosporidium parvum, HCT-8; single point inhibition @ 1 uM; read-out: % inh @ 1 uM C. parvum
measurementLabel: inhibition at 1 µM

Cc1cc(-c2cc3cnc(NC(=O)C4CC4)cc3n2CCO)ccn1 [Example 93] : 0 to 33%

Respond only with inhibition at 1 µM recorded for COc1nccc(-c2cc3cnc(NC(=O)c4cnn(CC5CCOC5)c4C)cc3[nH]2)n1 (stereo in doubt) [Example 179] 0 to 33%

Respond only with inhibition at 1 µM recorded for Cn1cc(C(=O)Nc2cc3[nH]c(C4CC4)cc3cn2)cn1 [Example 88] 33 to 66%

Respond only with inhibition at 1 µM recorded for O=C(CC1COC1)Nc1cc2[nH]c(-c3ccnc(C(F)(F)F)n3)cc2cn1 [Example 91] 0 to 33%

Respond only with inhibition at 1 µM recorded for CCOc1nccc(-c2cc3cnc(NC(=O)C4C5CCCC54)cc3[nH]2)n1 (centres unmarked) [Example 58] 0 to 33%

Respond only with inhibition at 1 µM recorded for CCOc1nccc(-c2cc3cnc(NC(=O)[C@@H]4C[C@H]4C)cc3[nH]2)n1 (stereo in doubt) [Example 153] 0 to 33%

Respond only with inhibition at 1 µM recorded for COc1nccc(-c2cc3cnc(NC(=O)c4ccc(OC5CCOCC5)cc4)cc3n2C)n1 [Example 188] 0 to 33%

Respond only with inhibition at 1 µM recorded for COc1nccc(-c2cc3cnc(NC(=O)[C@H]4C[C@@H](O)C4)cc3n2C)n1 [Example 163] 0 to 33%

Respond only with inhibition at 1 µM recorded for Cc1cc(-c2cc3cnc(Nc4cccc(-c5nc[nH]n5)c4)cc3[nH]2)ccn1 [Example 66] 67 to 100%

Respond only with inhibition at 1 µM recorded for O=C(Nc1cc2[nH]c(-c3ccnc(C(F)(F)F)n3)cc2cn1)[C@H]1C[C@H](O)C1 [Example 92] 33 to 66%

Respond only with inhibition at 1 µM recorded for c1ncc(-c2cc3cnc(Nc4cnn(C5CCOCC5)c4)cc3[nH]2)o1 [Example 147] 0 to 33%

Respond only with inhibition at 1 µM recorded for CC(C)n1cc(C(=O)Nc2cc3[nH]c(-c4ccnc(OCCC(F)(F)F)n4)cc3cn2)cn1 [Example 175] 0 to 33%

Respond only with inhibition at 1 µM recorded for Cc1cc(-c2cc3cnc(NC(=O)C(C)C)cc3[nH]2)ccn1 [Example 160] 0 to 33%

Respond only with inhibition at 1 µM recorded for CC(C)n1cc(C(=O)Nc2cc3[nH]c(-c4ccncc4)cc3cn2)cn1 [Example 162] 0 to 33%

Respond only with inhibition at 1 µM recorded for CC(C)n1cc(C(=O)Nc2cc3c(cn2)cc(-c2ccnc(NCCC(F)(F)F)n2)n3C)cn1 [Example 178] 0 to 33%

Respond only with inhibition at 1 µM recorded for CCOc1nccc(-c2cc3cnc(NC(=O)CC4COC4)cc3[nH]2)n1 [Example 139] 0 to 33%

Respond only with inhibition at 1 µM recorded for Cn1cc(C(=O)Nc2cc3[nH]c(-c4cncn4C)cc3cn2)cn1 [Example 90] 33 to 66%

----------
Listed below: inhibition at 1 µM values for each entry.
# System: C. parvum strain UGA1
# assayExplanation: C. parvum growth inhibition assay (Nluc luminescence in HCT-8 cells)
# Type: cell-based, Cryptosporidium parvum
# runParameters: Cryptosporidium parvum, HCT-8; single point inhibition at 1 uM; read-out: % inh @ 1 uM C. parvum

Cn1cc(C(=O)Nc2cc3[nH]c(-c4cnc(C(F)(F)F)cn4)cc3cn2)cn1 : 33 to 66%
Cn1cc(C(=O)Nc2cc3[nH]c(-c4ccnc(OCCC(F)(F)F)n4)cc3cn2)cn1 : 0 to 33%
CCOc1nccc(-c2cc3cnc(NC(=O)c4cnn(CCO)c4C)cc3[nH]2)n1 : 0 to 33%

Respond only with inhibition at 1 µM recorded for COC1CCC(OC(=O)Nc2cc3[nH]c(-c4ccnc(C)c4)cc3cn2)CC1 (centres unmarked) 0 to 33%

Respond only with inhibition at 1 µM recorded for Cn1cc(C(=O)Nc2cc3[nH]c(-c4ccnc(OCC(F)(F)F)n4)cc3cn2)cn1 0 to 33%

Respond only with inhibition at 1 µM recorded for Cc1cc(-c2cc3cnc(NC(=O)c4cnn(C)c4)cc3[nH]2)ncn1 0 to 33%

Respond only with inhibition at 1 µM recorded for COc1nccc(-c2cc3cnc(NC(=O)c4cccc5c4cnn5C)cc3[nH]2)n1 0 to 33%

Respond only with inhibition at 1 µM recorded for O=C(Nc1cc2[nH]c(-c3ccnc(OCC(F)F)n3)cc2cn1)c1cnn([C@H]2CC[C@@H](O)CC2)c1 0 to 33%

Respond only with inhibition at 1 µM recorded for Cc1cc(-c2cc3cnc(NC(=O)N(C)C)cc3[nH]2)ccn1 0 to 33%

Respond only with inhibition at 1 µM recorded for Cc1cc(-c2cc3cnc(NC(=O)c4cccc5c4cnn5C)cc3[nH]2)ccn1 0 to 33%

Respond only with inhibition at 1 µM recorded for COc1nccc(-c2cc3cnc(NC(=O)c4cnn(CC5CCCO5)c4)cc3[nH]2)n1 (stereo in doubt) 33 to 66%

Respond only with inhibition at 1 µM recorded for Cc1nc(-c2cc3cnc(NC(=O)C4CC4)cc3[nH]2)co1 0 to 33%

----------
Listed below: inhibition at 1 µM values for each entry.
# Tested on: C. parvum strain UGA1
# assayExplanation: C. parvum growth inhibition assay (Nluc luminescence in HCT-8 cells)
# Format: cell-based, Cryptosporidium parvum
# runParameters: Cryptosporidium parvum, HCT-8; single point inhibition at 1 uM; read-out: % inh @ 1 uM C. parvum

O=C(Nc1cc2[nH]c(-c3ccncc3)cc2cn1)c1ccccc1 : 0 to 33%
Cc1cc(-c2cc3cnc(NC(=O)C4CC4)cc3n2C(C)C)ccn1 : 0 to 33%
COc1nccc(-c2cc3cnc(NC(=O)c4cn(C)nc4C)cc3[nH]2)n1 : 0 to 33%
O=C(Nc1cc2[nH]c(-c3ccnc(C(F)(F)F)n3)cc2cn1)C1CC(O)C1 (centres unmarked) : 33 to 66%

Here is the next item to consider.
Quote inhibition at 1 µM with test system C. parvum strain UGA1 for COCCOc1ccc(C(=O)Nc2cc3[nH]c(-c4ccnc(C)c4)cc3cn2)cc1OC 0 to 33%

----------
# Tested on: C. parvum strain UGA1
# assayExplanation: C. parvum growth inhibition assay (Nluc luminescence in HCT-8 cells)
# Assay type: cell-based, Cryptosporidium parvum
# runParameters: Cryptosporidium parvum, HCT-8; single point inhibition at 1 uM; read-out: % inh @ 1 uM C. parvum
measurementLabel: inhibition at 1 µM

CC(C)n1cc(-c2cc3cnc(NC4CCOCC4)cc3n2C)cn1 : 33 to 66%

Respond only with inhibition at 1 µM recorded for Cc1cc(-c2cc3cnc(NC(=O)NC4CC4)cc3[nH]2)ccn1 0 to 33%

Respond only with inhibition at 1 µM recorded for Cc1cn(C)nc1C(=O)Nc1cc2[nH]c(-c3ccncc3)cc2cn1 0 to 33%

Respond only with inhibition at 1 µM recorded for Cn1cc(C(=O)Nc2cc3[nH]c(-c4ccnc(C(F)(F)F)n4)cc3cn2)cn1 0 to 33%

----------
# Test system: C. parvum strain UGA1
# assayExplanation: C. parvum growth inhibition assay (Nluc luminescence in HCT-8 cells)
# Format: cell-based, Cryptosporidium parvum
# runParameters: Cryptosporidium parvum, HCT-8; single point inhibition at 1 uM; read-out: % inh @ 1 uM C. parvum
Listed below: inhibition at 1 µM values for each entry.

Worked examples follow.
Cc1cc(-c2cc3cnc(NC(=O)c4cccc5cn[nH]c45)cc3[nH]2)ccn1 : 0 to 33%
Cn1ccc(C(=O)Nc2cc3[nH]c(-c4ccncc4)cc3cn2)n1 : 0 to 33%
O=C(Nc1cc2[nH]c(-c3ccncc3)cc2cn1)C1CCCCC1 : 0 to 33%
Cc1cc(-c2cc3cnc(NC(=O)c4cc(C(F)F)nn4C)cc3[nH]2)ccn1 : 0 to 33%

Here is the next item to consider.
Respond only with inhibition at 1 µM recorded for COc1cccc(Nc2cc3[nH]c(-c4cncn4C)cc3cn2)c1 33 to 66%

----------
# System: C. parvum strain UGA1
# assayExplanation: C. parvum growth inhibition assay (Nluc luminescence in HCT-8 cells)
# Format: cell-based, Cryptosporidium parvum
# runParameters: Cryptosporidium parvum, HCT-8; single point inhibition @ 10 uM; read-out: % inh @ 10 uM C. parvum
measurementLabel: inhibition at 10 µM

Worked examples follow.
Cn1cc(C(=O)Nc2cc3[nH]c(-c4ccnc(O[C@H]5CC[C@H](O)CC5)n4)cc3cn2)cn1 : 0 to 33%
CO[C@H]1C[C@H](C(=O)Nc2cc3[nH]c(-c4ccnc(C)c4)cc3cn2)C1 : 67 to 100%
CCOc1nccc(-c2cc3cnc(NC(=O)[C@@H]4C[C@H]4C)cc3[nH]2)n1 (stereo in doubt) : 67 to 100%
Cn1c(-c2ccnc(NCC(F)(F)F)n2)cc2cnc(NC(=O)c3cnn(C4CCOC4)c3)cc21 (stereo in doubt) : 67 to 100%
COc1nccc(-c2cc3cnc(NC(=O)c4cnn(CC5CCOC5)c4)cc3[nH]2)n1 (stereo in doubt) [Example 156] : 67 to 100%

Quote inhibition at 10 µM with test system C. parvum strain UGA1 for CC(Oc1nccc(-c2cc3cnc(NC(=O)c4cnn(C)c4)cc3[nH]2)n1)C(F)F (stereo not shown) 67 to 100%

Quote inhibition at 10 µM with test system C. parvum strain UGA1 for CC(C)n1cc(C(=O)Nc2cc3[nH]c(-c4ccnc(OCCF)n4)cc3cn2)cn1 67 to 100%
